tested on: breast adenocarcinoma cells of MCF-7 line; assay: Cytotoxicity, trypan blue exclusion assay, 24 h; details: Homo sapiens, MCF7, 24 h, read-out: LC50 Values of Compounds for Cell Line, MCF-7
Lab note: cut-off is 10 µM. Strictly less in CC50 is Yes. Exactly 10 µM or more is No.

CN(C)c1nc2c(Br)c(Br)c(Br)c(Br)c2n1CCCCCCCC(=O)NO [Compound 11d] ... Yes
O=C(NO)c1ccc(Cn2nc3c(Br)c(Br)c(Br)c(Br)c3n2)cc1 [Compound 15a] ... No
CN(C)c1nc2c(Br)c(Br)c(Br)c(Br)c2n1CCCCCC(=O)NO [Compound 11b] ... No
CN(C)c1nc2c(Br)c(Br)c(Br)c(Br)c2n1CCc1cn(CCC(=O)NO)nn1 ... No
CN(C)c1nc2c(Br)c(Br)c(Br)c(Br)c2n1Cc1ccc(C(=O)NO)cc1 ... No

====

tested on: HL-60/vinc (vincristine-resistant, P-gp overexpression); assay: Cytotoxicity, trypan blue exclusion assay, 24 h; type: cell-based; settings: Homo sapiens, HL60/vinc; supplement Table 4S; M±SD; read-out: LC50 values of compounds for cell line, HL-60/vinc
observed property: CC50 (µM)

CN(C)c1nc2c(Br)c(Br)c(Br)c(Br)c2n1CCCCCC(=O)NO [Compound 11b] ... 12.7
CN(C)c1nc2c(Br)c(Br)c(Br)c(Br)c2n1CCCCCCC(=O)NO [Compound 11c] ... 2.49
CN(C)c1nc2c(Br)c(Br)c(Br)c(Br)c2n1CCc1cn(CCC(=O)NO)nn1 [Compound 7c] ... 17.6
CN(C)c1nc2c(Br)c(Br)c(Br)c(Br)c2n1Cc1ccc(C(=O)NO)cc1 [Compound 19] ... 26.6

====

experiment: Cytotoxicity, trypan blue exclusion assay, 24 h (pseudonormal cells); conditions: human, HEK293 embryonic kidney cells (pseudonormal), LC50 Values of Compounds for Cell Line, HEK293, Table 2; trypan blue, 24 h; M ± SD
In this section, each of the compounds is paired with its reported CC50 at 24 h.
observed property: CC50 at 24 h (µM)

O=C(NO)c1ccc(Cn2nc3c(Br)c(Br)c(Br)c(Br)c3n2)cc1 [Compound 15a] ... 33.7
CN(C)c1nc2c(Br)c(Br)c(Br)c(Br)c2n1CCCCCC(=O)NO [Compound 11b] ... 23.3
CN(C)c1nc2c(Br)c(Br)c(Br)c(Br)c2n1Cc1ccc(C(=O)NO)cc1 ... 33.4
CN(C)c1nc2c(Br)c(Br)c(Br)c(Br)c2n1CCc1cn(CCC(=O)NO)nn1 ... 42.7
CN(C)c1nc2c(Br)c(Br)c(Br)c(Br)c2n1CCCCCCC(=O)NO [Compound 11c] ... 13.6
CN(C)c1nc2c(Br)c(Br)c(Br)c(Br)c2n1CCCCCCCC(=O)NO [Compound 11d] ... 8.41

====

In this section, each of the compounds is paired with its reported CC50 at 24 h.
experiment: Cytotoxicity, trypan blue exclusion assay, 24 h (pseudonormal cells); conditions: human, HEK293 embryonic kidney cells (pseudonormal), LC50 values of compounds for cell line, HEK293, supplement Table 4S; M±SD
observed property: CC50 at 24 h (µM)

CN(C)c1nc2c(Br)c(Br)c(Br)c(Br)c2n1CCc1cn(CCC(=O)NO)nn1 ... 23.3
CN(C)c1nc2c(Br)c(Br)c(Br)c(Br)c2n1Cc1ccc(C(=O)NO)cc1 ... 24.5
CN(C)c1nc2c(Br)c(Br)c(Br)c(Br)c2n1CCCCCC(=O)NO [Compound 11b] ... 13.6
CN(C)c1nc2c(Br)c(Br)c(Br)c(Br)c2n1CCCCCCC(=O)NO [Compound 11c] ... 8.41
